- Assay Notes: Pharmacokinetics after single dose of ELQ-598
- Assay type: in vivo
- Condition Details: male, CD1; mouse plasma, single ELQ-598 dose 0.3 mg/kg IV

>  <Structure Smiles>
CCOC(=O)OCOc1c(-c2ccc(-c3ccc(OC(F)(F)F)cc3)cc2)c(C)nc2cc(OC)c(Cl)cc12

>  <k el>
0.000258 s⁻¹

$$$$
